# target of assay: T1, recombinant human MASP1 active protease (amino acids 297-699, C-terminal His Tag) (human, UniProt P48740 297-699)
# T1 sequence: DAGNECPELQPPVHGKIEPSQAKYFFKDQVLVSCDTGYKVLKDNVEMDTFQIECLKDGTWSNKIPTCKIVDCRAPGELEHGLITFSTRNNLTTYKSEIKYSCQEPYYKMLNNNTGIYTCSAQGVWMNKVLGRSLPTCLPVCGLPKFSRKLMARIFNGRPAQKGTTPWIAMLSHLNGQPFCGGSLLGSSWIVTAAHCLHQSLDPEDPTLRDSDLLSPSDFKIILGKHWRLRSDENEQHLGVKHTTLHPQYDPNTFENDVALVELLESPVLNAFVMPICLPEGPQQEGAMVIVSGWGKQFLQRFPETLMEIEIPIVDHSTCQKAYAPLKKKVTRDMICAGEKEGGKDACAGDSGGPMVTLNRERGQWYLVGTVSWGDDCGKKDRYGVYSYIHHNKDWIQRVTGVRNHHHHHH
# protocol summary: cell-based or functional assay
Bridge positions count the residues as written; N and C are the ends. Square brackets hold non-standard residues; d marks the D form. Ends that are not written are not given here. Oic = O=C(O)[C@@H]1C[C@@H]2CCCC[C@@H]2N1; tBuAla = CC(C)(C)C[C@H](N)C(=O)O; Pen = CC(C)(S)[C@H](N)C(=O)O
endpoint name: human MASP1 IC50

binder: [tBuAla]ICSRSLP[Oic]I[Pen]IP-OH (disulfide 3-11; N-terminus assumed; SMILES CC[C@H](C)[C@H](NC(=O)[C@@H](N)CC(C)(C)C)C(=O)N[C@H]1CSSC(C)(C)[C@@H](C(=O)N[C@H](C(=O)N2CCC[C@H]2C(=O)O)[C@@H](C)CC)NC(=O)[C@H]([C@@H](C)CC)NC(=O)[C@@H]2C[C@@H]3CCCC[C@@H]3N2C(=O)[C@@H]2CCCN2C(=O)[C@H](CC(C)C)NC(=O)[C@H](CO)NC(=O)[C@H](CCCNC(=N)N)NC(=O)[C@H](CO)NC1=O) [Example 335: ((tBu)A)-IC+SRSLP-(Oic)-I-(Pen)+IP-OH]
endpoint name: human MASP1 IC50
recorded value: 25 nM
